# Lookup of reported Ratio Ki keyed by entry
Organism: Homo sapiens
Test: Selectivity ratio of Ki for PI3Kdelta (unknown origin) to Ki for PI3Kalpha (unknown origin)
Respond with the number and no other words.

Guide cases for Ratio Ki, answers given:
{"sample_smiles": "C[C@H](Oc1ccc2c(c1)OCCn1cc(-c3nc(CO)nn3CC(F)(F)F)nc1-2)C(N)=O", "measured_quantity": "Ratio Ki", "recorded_result": 15}
{"sample_smiles": "CC(C)n1nc(N)nc1-c1cn2c(n1)-c1ccc(O[C@@H](C)C(N)=O)cc1OCC2", "measured_quantity": "Ratio Ki", "recorded_result": 17}
{"sample_smiles": "NC(=O)[C@@H]1CCCN1c1ccc2c(c1)OCCn1cc(N3CC[C@H](O)C3=O)nc1-2", "measured_quantity": "Ratio Ki", "recorded_result": 13}
{"sample_smiles": "C[C@H](Oc1ccc2c(c1)OCCn1cc(-c3ncnn3CC(F)(F)F)nc1-2)C(N)=O", "measured_quantity": "Ratio Ki", "recorded_result": 14}
{"sample_smiles": "CO[C@H]1CCN(c2cn3c(n2)-c2ccc(N4CCC[C@H]4C(N)=O)cc2OCC3)C1=O", "measured_quantity": "Ratio Ki", "recorded_result": 4}
{"sample_smiles": "C[C@@H]1CN(c2cn3c(n2)-c2ccc(N4CCC[C@H]4C(N)=O)cc2OCC3)C(=O)O1", "measured_quantity": "Ratio Ki", "recorded_result": 15}
{"sample_smiles": "CC(C)[C@H](Nc1ccc2c(c1)OCCn1cc(N3C(=O)OC[C@H]3C(F)(F)F)nc1-2)C(N)=O", "measured_quantity": "Ratio Ki", "recorded_result": 94}
{"sample_smiles": "CC(C)[C@@H]1COC(=O)N1c1cn2c(n1)-c1ccc(N3CCC[C@H]3C(N)=O)cc1OCC2", "measured_quantity": "Ratio Ki", "recorded_result": 22}

For "NC(=O)[C@@H]1CCCN1c1ccc2c(c1)OCCn1cc(N3C(=O)OC[C@H]3CF)nc1-2" , write its Ratio Ki.
46

For "NC(=O)[C@@H]1CCCN1c1ccc2c(c1)OCCn1cc(N3CCn4nccc4C3=O)nc1-2" , write its Ratio Ki.
7

For "C[C@H](Nc1ccc2c(c1)OCCn1cc(N3C(=O)OC[C@H]3C(F)(F)F)nc1-2)C(N)=O" , write its Ratio Ki.
171

====

Organism: Homo sapiens
Assay: Selectivity ratio of Ki for PI3Kdelta (unknown origin) to Ki for PI3Kalpha (unknown origin)
# Lookup of reported Ratio Ki keyed by entry
Respond with the number and no other words.

Guide cases for Ratio Ki, answers given:
{"sample_smiles": "CO[C@@H]1CCN(c2ccc3c(c2)OCCn2cc(N4C(=O)OC[C@H]4C(F)(F)F)nc2-3)[C@@H]1C(N)=O", "measured_quantity": "Ratio Ki", "recorded_result": 27}
{"sample_smiles": "NC(=O)[C@@H]1CCCN1c1ccc2c(c1)OCCn1cc(N3CCOC3=O)nc1-2", "measured_quantity": "Ratio Ki", "recorded_result": 15}
{"sample_smiles": "NC(=O)[C@@H](Nc1ccc2c(c1)OCCn1cc(N3C(=O)OC[C@H]3C(F)(F)F)nc1-2)C1CCC1", "measured_quantity": "Ratio Ki", "recorded_result": 182}
{"sample_smiles": "NC(=O)[C@@H]1CCCN1c1ccc2c(c1)OCCn1cc(N3CCOCC3=O)nc1-2", "measured_quantity": "Ratio Ki", "recorded_result": 8}

Now for another entry.
For "NC(=O)[C@@H]1CCCN1c1ccc2c(c1)OCCn1cc(N3CCCOC3=O)nc1-2" , write its Ratio Ki.
9
